# ASSAY SYSTEM: HLA-B*18:01
# PROTOCOL DETAILS: IEDB peptide-MHC binding, purified MHC/direct/fluorescence; filed as Kd, often an IC50 or EC50 that approximates it; bounds were set here for any values at or beyond the usual limits of such assays
# ASSAY CONTEXT: source organism: Salmonella enterica subsp. enterica serovar Berta
pKd: −log10 of the molar value.
MEASURED QUANTITY: pKd

[
  {
    "SEQUENCE STRING": "HQDDGQPRL",
    "REPORTED RESULT": "≤ 4.70"
  }
]

----------
# ASSAY SYSTEM: HLA-B*27:05
# PROTOCOL DETAILS: IEDB peptide-MHC binding, purified MHC/direct/fluorescence; filed as Kd, often an IC50 or EC50 that approximates it; bounds were set here for any values at or beyond the usual limits of such assays
# ASSAY CONTEXT: source organism: Camelpox virus M-96

[
  {
    "SEQUENCE STRING": "ATNDGLIKK",
    "ASSAY SYSTEM": "HLA-B*27:05",
    "Kd": "≥ 20 µM"
  },
  {
    "SEQUENCE STRING": "FVHTLLKTY",
    "ASSAY SYSTEM": "HLA-B*27:05",
    "Kd": "≥ 20 µM"
  },
  {
    "SEQUENCE STRING": "LTFLHTLYK",
    "ASSAY SYSTEM": "HLA-B*27:05",
    "Kd": "≥ 20 µM"
  }
]
